Entries and their log10(IC50) values follow.
# System: HOP62 cells
# Measurement notes: Cell survival assay (SRB)
# Format: cell-based, human
# Measurement setup: HOP62 (lung); read-out: Cytoselectivities (nM) HOP62
Would you kindly interpret these values as log10 of IC50 expressed in nM?

Worked cases, log10(IC50) given:
| Compound | log10(IC50) |
| --- | --- |
| O=C(CCCCC[C@@H](NC(=O)OCc1ccccc1)C(=O)Nc1cccc2cccnc12)NO [148 R] | 1.81 |
| O=C(CCCCC[C@@H](NC(=O)c1ccc(Br)cc1)C(=O)Nc1ccc(-c2ccccc2)cc1)NO [161 R] | 4.27 |
| CN(C)c1ccc(C(=O)N[C@H](CCCCCC(=O)NO)C(=O)Nc2cccc3cccnc23)cc1 [126 R] | 2.17 |

// field: log10(IC50); key: O=C(/C=C/c1ccccc1)N[C@H](CCCCCC(=O)NO)C(=O)Nc1cccc2cccnc12 [146 R] ; value = 2.12

// field: log10(IC50); key: O=C(CCCCC[C@@H](NC(=O)c1cc2ccccc2[nH]1)C(=O)Nc1cccc2cccnc12)NO [132 R] ; value = 1.80

###

Entries and their IC50 values follow.
# Tested on: MM96L melanoma cells
# Measurement notes: Cell survival assay (clonogenic survival, SRB)
# Type: cell-based, human
# Measurement setup: MM96L, Table 12; read-out: Cytoselectivities (nM) MM96L
# unit: nM | format: bare number

| Query smiles | Unit descriptor | IC50 |
| --- | --- | --- |
| O=C(/C=C/c1ccccc1)N[C@H](CCCCCC(=O)NO)C(=O)Nc1cccc2cccnc12 | nM | 45 |

// field: IC50; key: CN(C)c1ccc(C(=O)N[C@H](CCCCCC(=O)NO)C(=O)Nc2cccc3cccnc23)cc1 ; value = 38

// field: IC50; key: O=C(CCCCC[C@@H](NC(=O)OCc1ccccc1)C(=O)Nc1cccc2cccnc12)NO ; value = 22

// field: IC50; key: O=C(CCCCC[C@@H](NC(=O)c1ccc(Br)cc1)C(=O)Nc1ccc(-c2ccccc2)cc1)NO ; value = 18600

// field: IC50; key: O=C(CCCCC[C@@H](NC(=O)c1cc2ccccc2[nH]1)C(=O)Nc1cccc2cccnc12)NO ; value = 18

###

# System: SkMel28 melanoma cells
# Measurement notes: Cell survival assay (SRB)
# Format: cell-based, human
# Measurement setup: Homo sapiens, SK-MEL-28; Table 11, antiproliferative potency; read-out: IC50 (μM) SK Mel 28
Measurement kind: IC50 (µM)
# unit: µM | format: bare number

// field: IC50; key: CN(C)c1ccc(C(=O)N[C@@H](CCCCCC(=O)NO)C(=O)NCc2ccccc2)cc1 (racemic) ; value = 0.06

###

# Test system: HT29 cells
# Measurement notes: Cell survival assay (SRB)
# Assay type: cell-based, human
# Measurement setup: HT29 (colon); read-out: Cytoselectivities (nM) HT29
Entries and their IC50 values follow.
# unit: nM | format: bare number

Worked cases, IC50 given:
| Query smiles | System tested | Unit descriptor | IC50 |
| --- | --- | --- | --- |
| O=C(/C=C/c1ccccc1)N[C@H](CCCCCC(=O)NO)C(=O)Nc1cccc2cccnc12 | HT29 cells | nM | 272 |
| O=C(CCCCC[C@@H](NC(=O)c1cc2ccccc2[nH]1)C(=O)Nc1cccc2cccnc12)NO | HT29 cells | nM | 238 |
| O=C(CCCCC[C@@H](NC(=O)OCc1ccccc1)C(=O)Nc1cccc2cccnc12)NO | HT29 cells | nM | 139 |

The compound O=C(CCCCC[C@@H](NC(=O)c1ccc(Br)cc1)C(=O)Nc1ccc(-c2ccccc2)cc1)NO , tested on HT29 cells, showed IC50 of 18600

The compound CN(C)c1ccc(C(=O)N[C@H](CCCCCC(=O)NO)C(=O)Nc2cccc3cccnc23)cc1 , tested on HT29 cells, showed IC50 of 199

###

# Tested on: D14 melanoma cells
# Measurement notes: Cell survival assay (SRB)
# Assay type: cell-based, human
# Measurement setup: Homo sapiens; Table 11, antiproliferative potency
Measurement kind: IC50 (µM)
# unit: µM | format: bare number

// field: IC50; key: CN(C)c1ccc(C(=O)N[C@@H](CCCCCC(=O)NO)C(=O)NCc2ccccc2)cc1 (racemic) [Example 124] ; value = 0.26

###

# Tested on: MM96L melanoma cells
# Measurement notes: Cell survival assay (clonogenic survival, SRB)
# Type: cell-based, human
# Measurement setup: Table 8; IC50 (NFF)/IC50 (MM96L)
Entries and their Selectivity values follow.
Could you respond with only the numeric value?

Worked cases, Selectivity given:
| Compound | Selectivity |
| --- | --- |
| CN(C)c1ccc(C(=O)N[C@@H](CSCCCC(=O)NO)C(=O)NCc2ccc(C(=O)Nc3cccc4cccnc34)cc2)cc1 | 2.4 |
| CC(C)NC(=O)c1ccc(CNC(=O)[C@H](CSCCCC(=O)NO)NC(=O)c2ccc(N(C)C)cc2)cc1 | 7.30 |
| CN(C)c1ccc(C(=O)N[C@@H](CSCCCC(=O)NO)C(=O)NCc2ccc(C(=O)NCCc3ccc(O)cc3)cc2)cc1 | 5.4 |

The compound CN(C)c1ccc(C(=O)N[C@@H](CSCCCC(=O)NO)C(=O)NCc2ccc(C(=O)Nc3ccc4cn[nH]c4c3)cc2)cc1 , tested on MM96L melanoma cells, showed Selectivity of 8.1

The compound CN(C)c1ccc(C(=O)NC(CSCCCC(=O)NO)C(=O)NCc2ccc(C(=O)NC(c3ccccc3)C(O)c3ccccc3)cc2)cc1 (stereo not drawn) , tested on MM96L melanoma cells, showed Selectivity of 5.0

The compound CN(C)c1ccc(C(=O)N[C@@H](CSCCCC(=O)NO)C(=O)NCc2ccc(C(=O)NCc3ccccn3)cc2)cc1 , tested on MM96L melanoma cells, showed Selectivity of 7.4

###

# System: SkMel28 melanoma cells
# Measurement notes: Cell survival assay (SRB)
# Format: cell-based, human
# Measurement setup: Homo sapiens, SK-MEL-28; Table 10; standard deviations in parentheses; read-out: Cell line IC50 (μM) SkMel
Entries and their IC50 values follow.
Give the figure together with its unit, number first.

// field: IC50; key: CN(C)c1ccc(C(=O)N[C@@H](CSCCCC(=O)NO)C(=O)Nc2ccc(-c3ccccc3)cc2)cc1 [Example 61] ; value = 1.11 µM

// field: IC50; key: CN(C)c1ccc(C(=O)N[C@@H](CSCCCC(=O)NO)C(=O)Nc2cccnc2)cc1 [Example 78] ; value = 2.33 µM

// field: IC50; key: CN(C)c1ccc(C(=O)N[C@@H](CSCCCC(=O)NO)C(=O)NC2CCCc3ccccc32)cc1 (stereo partly shown) [Example 67] ; value = 2.59 µM

// field: IC50; key: CN(C)c1ccc(NC(=O)[C@H](CSCCCC(=O)NO)NC(=O)c2ccc(N(C)C)cc2)cc1 [Example 59] ; value = 1.09 µM

###

# Test system: Col208 cells
# Measurement notes: Cell survival assay (SRB)
# Assay type: cell-based, human
# Measurement setup: Table 13; S enantiomer; IC50(NFF)/IC50(cancer cell line)
Entries and their Selectivity Index Col208 values follow.
Could you respond with only the numeric value?

| Query smiles | Selectivity Index Col208 |
| --- | --- |
| O=C(CCCCC[C@H](NC(=O)OCc1ccccc1)C(=O)Nc1cccc2cccnc12)NO | 4 |
| CC(C)COC(=O)N[C@@H](CCCCCC(=O)NO)C(=O)Nc1cccc2cccnc12 | 0.2 |
| O=C(CCCCC[C@H](NC(=O)c1cc2ccccc2[nH]1)C(=O)Nc1cccc2cccnc12)NO | 3 |
| O=C(/C=C/c1ccccc1)N[C@@H](CCCCCC(=O)NO)C(=O)Nc1cccc2cccnc12 | 9 |
| O=C(CCCCC[C@H](NC(=O)c1ccc(Br)cc1)C(=O)Nc1ccc(-c2ccccc2)cc1)NO | 0.6 |

Now look at this one.
The compound CN(C)c1ccc(C(=O)N[C@@H](CCCCCC(=O)NO)C(=O)Nc2cccc3cccnc23)cc1 , tested on Col208 cells, showed Selectivity Index Col208 of 1.5

###

# Test system: HOP62 cells
# Measurement notes: Cell survival assay (SRB)
# Assay type: cell-based, human
# Measurement setup: Table 13; S enantiomer; IC50(NFF)/IC50(cancer cell line)
Measurement kind: Selectivity Index HOP62
Could you respond with only the numeric value?

| Query smiles | Selectivity Index HOP62 |
| --- | --- |
| CN(C)c1ccc(C(=O)N[C@@H](CCCCCC(=O)NO)C(=O)Nc2cccc3cccnc23)cc1 | 4 |
| O=C(CCCCC[C@H](NC(=O)c1ccc(Br)cc1)C(=O)Nc1ccc(-c2ccccc2)cc1)NO | 0.7 |

// field: Selectivity Index HOP62; key: CC(C)COC(=O)N[C@@H](CCCCCC(=O)NO)C(=O)Nc1cccc2cccnc12 ; value = 0.3

// field: Selectivity Index HOP62; key: O=C(CCCCC[C@H](NC(=O)OCc1ccccc1)C(=O)Nc1cccc2cccnc12)NO ; value = 2

// field: Selectivity Index HOP62; key: O=C(/C=C/c1ccccc1)N[C@@H](CCCCCC(=O)NO)C(=O)Nc1cccc2cccnc12 ; value = 19

// field: Selectivity Index HOP62; key: O=C(CCCCC[C@H](NC(=O)c1cc2ccccc2[nH]1)C(=O)Nc1cccc2cccnc12)NO ; value = 5
